TEST_TARGET: N-type Ca^2+ Channel (Homo sapiens)
Construct: host or cells: IMR-32 cells differentiated with dibutyryl cAMP and bromodeoxyuridine
Sequence (Q00975 whole entry): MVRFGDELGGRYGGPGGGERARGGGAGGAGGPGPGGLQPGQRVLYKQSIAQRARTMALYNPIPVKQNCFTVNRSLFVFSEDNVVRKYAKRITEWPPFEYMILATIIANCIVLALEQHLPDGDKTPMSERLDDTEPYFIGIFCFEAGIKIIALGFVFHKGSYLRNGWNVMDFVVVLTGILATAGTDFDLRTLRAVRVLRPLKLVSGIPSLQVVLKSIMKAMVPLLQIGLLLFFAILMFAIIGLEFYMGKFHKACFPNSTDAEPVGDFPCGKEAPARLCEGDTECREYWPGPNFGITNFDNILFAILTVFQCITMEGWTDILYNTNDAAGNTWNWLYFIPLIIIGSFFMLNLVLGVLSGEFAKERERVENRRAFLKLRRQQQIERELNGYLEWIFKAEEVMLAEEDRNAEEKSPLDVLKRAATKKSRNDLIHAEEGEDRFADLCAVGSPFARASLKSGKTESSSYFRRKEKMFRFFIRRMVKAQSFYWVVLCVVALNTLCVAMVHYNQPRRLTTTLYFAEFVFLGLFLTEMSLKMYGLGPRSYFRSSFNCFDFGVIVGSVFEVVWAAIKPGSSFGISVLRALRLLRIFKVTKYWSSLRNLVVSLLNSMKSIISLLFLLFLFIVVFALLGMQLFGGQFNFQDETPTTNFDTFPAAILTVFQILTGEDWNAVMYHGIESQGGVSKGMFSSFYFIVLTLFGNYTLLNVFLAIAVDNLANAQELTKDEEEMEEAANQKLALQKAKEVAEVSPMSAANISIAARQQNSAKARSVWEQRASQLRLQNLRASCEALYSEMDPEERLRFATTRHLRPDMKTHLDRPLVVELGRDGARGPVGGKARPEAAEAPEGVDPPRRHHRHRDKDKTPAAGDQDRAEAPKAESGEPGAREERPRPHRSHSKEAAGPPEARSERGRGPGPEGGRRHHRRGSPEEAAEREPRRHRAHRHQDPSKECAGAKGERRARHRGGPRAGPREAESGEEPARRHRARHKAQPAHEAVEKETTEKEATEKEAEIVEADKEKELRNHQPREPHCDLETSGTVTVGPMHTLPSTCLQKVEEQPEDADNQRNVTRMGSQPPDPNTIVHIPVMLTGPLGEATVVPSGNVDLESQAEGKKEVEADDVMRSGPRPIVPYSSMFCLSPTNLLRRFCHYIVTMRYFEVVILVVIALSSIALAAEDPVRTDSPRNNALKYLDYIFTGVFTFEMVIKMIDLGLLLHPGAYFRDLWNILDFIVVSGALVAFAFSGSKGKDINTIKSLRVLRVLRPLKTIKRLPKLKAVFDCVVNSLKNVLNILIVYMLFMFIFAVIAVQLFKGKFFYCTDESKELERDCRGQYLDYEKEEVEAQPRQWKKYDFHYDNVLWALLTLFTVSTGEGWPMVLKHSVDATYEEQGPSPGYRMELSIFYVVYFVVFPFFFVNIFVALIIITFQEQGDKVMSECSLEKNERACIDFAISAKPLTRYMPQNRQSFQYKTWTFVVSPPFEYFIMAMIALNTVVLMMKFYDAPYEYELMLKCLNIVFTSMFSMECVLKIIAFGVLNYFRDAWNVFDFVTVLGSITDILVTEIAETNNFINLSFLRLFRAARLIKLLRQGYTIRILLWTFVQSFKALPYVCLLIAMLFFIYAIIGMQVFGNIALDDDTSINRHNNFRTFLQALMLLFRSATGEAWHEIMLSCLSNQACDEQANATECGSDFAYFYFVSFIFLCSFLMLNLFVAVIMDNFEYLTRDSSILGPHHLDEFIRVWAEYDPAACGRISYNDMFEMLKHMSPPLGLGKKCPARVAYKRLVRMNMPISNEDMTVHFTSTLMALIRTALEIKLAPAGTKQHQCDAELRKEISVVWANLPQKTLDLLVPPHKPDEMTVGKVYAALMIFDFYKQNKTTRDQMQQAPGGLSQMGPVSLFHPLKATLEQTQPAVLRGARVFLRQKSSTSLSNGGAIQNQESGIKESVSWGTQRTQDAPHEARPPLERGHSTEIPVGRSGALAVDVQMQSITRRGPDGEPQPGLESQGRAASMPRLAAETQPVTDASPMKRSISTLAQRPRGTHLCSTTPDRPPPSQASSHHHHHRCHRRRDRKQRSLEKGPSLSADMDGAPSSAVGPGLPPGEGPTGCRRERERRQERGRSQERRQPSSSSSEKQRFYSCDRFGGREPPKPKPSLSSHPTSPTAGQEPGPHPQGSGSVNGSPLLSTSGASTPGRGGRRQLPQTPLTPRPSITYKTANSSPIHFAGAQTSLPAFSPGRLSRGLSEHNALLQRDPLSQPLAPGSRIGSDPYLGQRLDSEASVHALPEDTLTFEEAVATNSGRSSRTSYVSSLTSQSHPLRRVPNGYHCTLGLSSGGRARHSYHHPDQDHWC
Sequence (P54284 whole entry partner): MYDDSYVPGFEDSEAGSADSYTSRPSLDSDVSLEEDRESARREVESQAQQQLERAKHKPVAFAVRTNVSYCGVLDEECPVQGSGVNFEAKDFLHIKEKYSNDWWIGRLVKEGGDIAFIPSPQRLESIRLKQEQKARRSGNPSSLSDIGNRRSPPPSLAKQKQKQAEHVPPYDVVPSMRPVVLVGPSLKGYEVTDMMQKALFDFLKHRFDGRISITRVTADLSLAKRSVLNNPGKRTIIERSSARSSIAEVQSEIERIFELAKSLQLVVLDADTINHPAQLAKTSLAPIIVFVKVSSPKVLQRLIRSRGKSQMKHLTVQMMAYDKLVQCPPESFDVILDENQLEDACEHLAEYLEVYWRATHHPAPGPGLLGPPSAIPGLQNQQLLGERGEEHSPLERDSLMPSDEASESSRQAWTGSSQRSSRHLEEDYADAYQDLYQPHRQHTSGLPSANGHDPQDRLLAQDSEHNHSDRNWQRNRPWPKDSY
Sequence (P54289 25-946 partner limits assumed): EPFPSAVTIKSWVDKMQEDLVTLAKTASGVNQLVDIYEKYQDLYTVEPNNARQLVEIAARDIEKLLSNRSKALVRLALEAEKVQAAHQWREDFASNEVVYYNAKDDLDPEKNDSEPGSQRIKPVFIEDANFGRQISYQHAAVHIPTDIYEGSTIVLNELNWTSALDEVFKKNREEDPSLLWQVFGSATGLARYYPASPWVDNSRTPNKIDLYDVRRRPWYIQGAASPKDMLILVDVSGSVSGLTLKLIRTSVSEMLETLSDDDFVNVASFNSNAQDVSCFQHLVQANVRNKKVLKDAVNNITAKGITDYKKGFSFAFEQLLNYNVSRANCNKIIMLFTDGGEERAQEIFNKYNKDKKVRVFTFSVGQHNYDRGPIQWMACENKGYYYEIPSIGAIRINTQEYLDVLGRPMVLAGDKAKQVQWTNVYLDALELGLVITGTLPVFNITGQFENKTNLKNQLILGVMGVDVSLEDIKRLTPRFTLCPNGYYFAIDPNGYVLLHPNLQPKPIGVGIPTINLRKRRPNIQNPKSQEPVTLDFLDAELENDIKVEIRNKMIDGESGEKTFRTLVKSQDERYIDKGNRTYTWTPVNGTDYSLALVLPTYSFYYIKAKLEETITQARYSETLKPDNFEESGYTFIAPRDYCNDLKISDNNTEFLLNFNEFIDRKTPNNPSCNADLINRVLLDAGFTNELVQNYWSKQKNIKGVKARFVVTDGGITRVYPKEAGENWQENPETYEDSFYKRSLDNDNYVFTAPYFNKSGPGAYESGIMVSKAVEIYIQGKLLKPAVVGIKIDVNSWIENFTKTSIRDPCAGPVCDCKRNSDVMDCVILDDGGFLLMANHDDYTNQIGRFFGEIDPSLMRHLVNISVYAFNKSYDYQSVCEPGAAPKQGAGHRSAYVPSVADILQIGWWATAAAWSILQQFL
Sequence (P54289 947-1103 partner limits assumed): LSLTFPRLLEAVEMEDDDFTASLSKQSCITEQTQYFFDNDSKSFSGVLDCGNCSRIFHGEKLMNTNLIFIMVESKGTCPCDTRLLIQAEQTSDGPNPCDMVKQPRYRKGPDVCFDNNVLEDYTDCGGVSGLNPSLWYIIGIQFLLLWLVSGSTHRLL
ASSAY_NAME: Measurement of N-type Ca2+ channel blocking potencies in IMR-32 cells using the fluorescent Ca2+ indicator Indo-1
Format: cell-based
ASSAY_SETUP: 1 μM; IMR-32 cells, 5 μM nitrendipine
PARAMETER: IMR 32 % of Blockade @ 1 μM (%)

Below are worked cases with known answers.
Looking up CC(C)C[C@@H](C(=O)N[C@@H](Cc1ccc(OCc2ccccc2)cc1)C(=O)NC(C)(C)C)N1CCOCC1 (relative stereo) [Example 94] , I found its IMR 32 % of Blockade @ 1 μM recorded as 24

Looking up CC(C)C[C@@H](C(=O)N[C@@H](Cc1ccc(OCc2ccccc2)cc1)C(=O)N1CCN(C)CC1)N(C)C1CCCCC1 (relative stereo) [Example 24] , I found its IMR 32 % of Blockade @ 1 μM recorded as 32

Looking up CC(C)C[C@@H](C(=O)N[C@@H](Cc1ccc(OCc2ccccc2)cc1)C(=O)NC(C)(C)C)N(C)C(C)CO (mixture of isomers) [Example 88] , I found its IMR 32 % of Blockade @ 1 μM recorded as 30

Looking up CC(C)CCN(C)[C@@H](CC(C)C)C(=O)N[C@@H](Cc1ccc(OCc2ccccc2)cc1)C(=O)N1CCCCC1 (relative stereo) [Example 8] , I found its IMR 32 % of Blockade @ 1 μM recorded as 70

Looking up CC(C)C[C@@H](C(=O)N[C@@H](Cc1ccc(OCc2ccccc2)cc1)C(=O)N1CCN(Cc2ccccc2)CC1)N(C)Cc1ccc(C(C)(C)C)cc1 (relative stereo) [Example 16] , I found its IMR 32 % of Blockade @ 1 μM recorded as 41

(1) CC(C)C[C@@H](C(=O)N[C@@H](Cc1ccc(OCc2ccccc2)cc1)C(=O)NCCN1CCCCC1)N(C)C (relative stereo) [Example 3]
(2) CC(C)C[C@@H](C(=O)N[C@@H](Cc1ccc(OCc2ccccc2)cc1)C(=O)NCCN1CCCCC1)N(C)Cc1ccc(C(C)(C)C)cc1 (relative stereo) [Example 15]
(3) CC(C)CCN(C)[C@@H](CC(C)C)C(=O)N[C@@H](Cc1ccc(OCc2ccccc2)cc1)C(=O)N1CCN(C)CC1 (relative stereo) [Example 12]
Arrange the 3 entries by IMR 32 % of Blockade @ 1 μM so the values rise. Please reply with the labels ordered as requested. Many thanks.
1, 3, 2
(1: 21%, 3: 39%, 2: 56%)

(a) CC(C)CCN(C)C(CC(C)C)C(=O)NC(Cc1ccc(OCc2ccccc2)cc1)C(=O)N1CCN(Cc2ccccc2)CC1 (centres unmarked) [Example 10]
(b) CC(C)C[C@@H](C(=O)N[C@@H](Cc1ccc(OCc2ccccc2)cc1)C(=O)NC1CCN(Cc2ccccc2)CC1)N(C)C (relative stereo) [Example 5]
Could you tell me which of these two has the smaller IMR 32 % of Blockade @ 1 μM figure? First: a Second: b // output: label of the selected item
b
(b: 24%, a: 61%)

(1) CC(C)C[C@@H](C(=O)N[C@@H](Cc1ccc(OCc2ccccc2)cc1)C(=O)N1CCN(Cc2ccccc2)CC1)N(C)C1CCCCC1 (relative stereo) [Example 22]
(2) CC(C)C[C@@H](C(=O)N[C@@H](Cc1ccc(OCc2ccccc2)cc1)C(=O)NC(C)(C)C)N(C)Cc1cccnc1 (relative stereo) [Example 101]
Two entries are listed, 1 and 2 . Which one carries the higher IMR 32 % of Blockade @ 1 μM? // output: label of the selected item
1

(1) CC(C)C[C@@H](C(=O)N[C@@H](Cc1ccc(OCc2ccccc2)cc1)C(=O)N1CCN(C)CC1)N(C)Cc1ccc(C(C)(C)C)cc1 (relative stereo) [Example 18]
(2) CC(C)C[C@@H](C(=O)N[C@@H](Cc1ccc(OCc2ccccc2)cc1)C(=O)NC(C)(C)C)N(C)C1CCC(C(C)(C)C)CC1 (relative stereo) [Example 38]
Two entries are listed, 1 and 2 . Which one carries the higher IMR 32 % of Blockade @ 1 μM? // output: label of the selected item
1
